Assay: growth inhibition, MDA-MB-436, cell-based, BGB or cisplatin combos, synergistic combos for chromothripsis tumors (AID 1671458);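 note: cells exposed for 96 hours; 0% = vehicle DMSO and 100% = killing by high DMSO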
Conditions: MDA-MB-436 breast carcinoma growth inhibition, drug combinations; measured here: cisplatin combination; at 5 µM; stronger effect = higher value
EXPERIMENTAL ENDPOINT: inhibition (%)
Number only, in %; omit the unit.

Solved entries:
| MOLECULE | NUMERIC READOUT |
| --- | --- |
| NC(=O)c1ncn(C2OC(CO)C(O)C2O)c1O (stereo not given) | -10.8 |
| O=c1[nH]cnc2c1ncn2C1CCC(CO)O1 (stereo not given) | -39 |

# get_value(readout='inhibition', item= `O=C1C(=Cc2cccnc2)C(=O)c2ccccc21` )
-23.4

# get_value(readout='inhibition', item= CCC(Sc1nnc2c3ccccc3n(CC)c2n1)C(=O)Nc1ccccc1OC (stereo not given) )
-22
